Tested on: 786-0
Experiment: NCI tumour cell line growth inhibition, 48 h
Active and inactive are the calls of the source. Cut-off read from the data, not from the text of the source: active = GI50 up to about 1.1 µM and inactive = higher.
Labels: label 1 for active, label 0 for inactive

COMPOUND	STUDY_SYSTEM	CLASS_LABEL
NC(N)=NCc1ccc2c(c1)OCO2	786-0	label 0
Cc1cn(C2CCN(CC3COC(C)(C)O3)O2)c(=O)[nH]c1=O (stereo not given)	786-0	label 0
COc1cc(Br)c(/C=N\c2cccc3ccc(OS(=O)(=O)c4ccc([N+](=O)[O-])cc4)cc23)cc1OC	786-0	label 0
CCOC(=O)c1c(NC(=O)Nc2ccccc2)c(C(N)=O)c2n1CCCCC2	786-0	label 0
O=C(NNC(=O)/C(=C/c1cccc([N+](=O)[O-])c1)NC(=O)c1ccccc1)Nc1ccc(Cl)cc1	786-0	label 0
COc1ccc(CC2c3cc(OC)c(OC)cc3CC[N+]2(C)C)cc1OC (stereo not given)	786-0	label 0
O=C(NC(=S)Nc1ccc([N+](=O)[O-])cc1)c1ccc2c(c1)Sc1ccccc1O2	786-0	label 0
CC(C)Cn1cnc2c(Cl)nc3ccccc3c21	786-0	label 0
C[C@@H]1CCC2[C@@H](C)C(=O)O[C@@H]3C4C[C@@H]1[C@@]23OO[C@@]4(C)O (stereo not given in full)	786-0	label 0
COc1cccc([C@H]2CC(=O)c3cc4c(cc3N2)OCO4)c1	786-0	label 1

###

Tested on: COLO 205
Assay: NCI tumour cell line growth inhibition, 48 h
Activity calls are given as the source filed them. No stated cut-off is given here; in the data, active = GI50 up to about 1.1 µM and inactive = higher. *1 amine or outer side, *2 acyl side, *3 side chain or, on linkers, in order; H or OH if unused. Where a SMILES comes first, the peptide text is derived from it. Bridges are numbered along the chain shown (N, C = ends). [ ]: non-standard residue; d: D form. The star is where a group is joined. ξ: configuration not given here. ξOrn(4,5-diOH) = O=C(C(CC(O)C(O)N[*:3])N[*:1])[*:2]; ξhTyr(βξ-OH,γξ-OH) = NC(C(=O)O)C(O)C(O)c1ccc(O)cc1; ξNMePhe(4-NMe2) = CNC(Cc1ccc(N(C)C)cc1)C(=O)O; ξPro(3ξ-OH,4ξ-Me) = CC1CNC(C(=O)O)C1O; X55 = CCCCC/C=C/C/C=C\CCCCCCCC(=O)*; Picolinoyl(3-OH) = O=C(c1ncccc1O)*; ξPip(4-oxo) = O=C1CCNC(C(=O)O)C1; Hyp = O=C(O)[CH]1C[CH](O)CN1; Phg = N[CH](C(=O)O)c1ccccc1; Abu = CC[CH](N)C(=O)O
Labels: TRUE = active, FALSE = inactive

COMPOUND	CLASS_LABEL
OCC(O)C(O)C(O)C(O)c1nnn[nH]1 (stereo unspecified)	FALSE
CC(C)c1c2[nH]c3ccccc3c2c(C(C)C)c2[nH]c3ccccc3c12	FALSE
N=C(c1ccccc1)N1CCCCC1	FALSE
CCOC(=O)c1c(N)sc2c1C(C(=O)OCC)CCCC2 (stereo unspecified)	FALSE
CCOC(=O)c1ccc(Nc2nc3cc(C(F)(F)F)ccc3nc2-c2ccccc2)cc1	FALSE
COc1oc(C(=O)NC2CCCCC2)c(-c2ccc(Cl)cc2)c1S(=O)(=O)c1ccccc1	FALSE
COC(=O)[C@H](Cc1ccccc1)NC(=O)c1ccc(CNC(=O)/C=C/c2csc(-c3ccccc3)n2)cc1	FALSE
OCC(Cn1cncn1)(c1ccc(F)cc1F)n1cncn1 (stereo unspecified)	FALSE
O=C(c1ccccc1)c1sc2c(=O)c(C(=O)c3ccccc3)c(C(=O)c3ccccc3)sc2c(=O)c1C(=O)c1ccccc1	FALSE
CC1=C/C(O)CC(=O)Cc2nc(co2)C(=O)N2CCC=C2C(=O)OC(C(C)C)C(C)/C=C/C(=O)NC\C=C\1.CCC1NC(=O)C(NC(=O)c2ncccc2O)C(C)OC(=O)C(c2ccccc2)NC(=O)C2CC(=O)CCN2C(=O)C(Cc2ccc(N(C)C)cc2)N(C)C(=O)C2CCCN2C1=O (stereo unspecified) ({Picolinoyl(3-OH)}-T[Abu]P[ξNMePhe(4-NMe2)][ξPip(4-oxo)][Phg]; ester 1-C; configuration not given here)	FALSE
CCCCCC/C=C1\CCC(CN2CCCC2)C1=O (stereo unspecified)	FALSE
CO/C(=N\N=C\c1ccc(C(F)(F)F)cc1)c1ccncc1	FALSE
N#C[BH2-][n+]1ccc(C(=O)NNCC(F)(F)F)cc1	FALSE
C[C@]12CCC(=O)C[C@H]1CCC(O)[C@@H]2Br (stereo partly specified)	FALSE
COC1=C[C@]2(CCC(=O)O2)[C@@H]2Cc3ccccc3[C@H](O)[C@@H]2C1=O	FALSE
CCCCC/C=C/C/C=C\CCCCCCCC(=O)NC1CC(O)C(O)NC(=O)C2C(O)C(C)CN2C(=O)C(C(C)O)NC(=O)C(C(O)C(O)c2ccc(O)cc2)NC(=O)C2CC(O)CN2C(=O)C(C(C)O)NC1=O (stereo not drawn) (X55-[ξOrn(4,5-diOH)]T[Hyp][ξhTyr(βξ-OH,γξ-OH)]T[ξPro(3ξ-OH,4ξ-Me)]; lactam 1-C; configuration not given here)	FALSE
c1cc2c(cc1NC1=NCCO1)OCO2	FALSE
C(/Cc1ccc2c(c1)OCO2)=N\N=C1NCCCN1	FALSE
Cc1nc(N2N=C(c3ccc(Cl)cc3)CCC2=O)sc1[N+](=O)[O-]	FALSE
Nc1nc(-c2ccco2)cc(-c2ccco2)n1	FALSE
CC(=O)OC1COC(n2c(-c3ccc(Cl)cc3)cc(-c3ccccc3)c(C#N)c2=S)C(OC(C)=O)C1OC(C)=O (stereo unspecified)	FALSE
Cc1cc(C)c2c(n1)S(=O)(=O)N(CCCN1CCN(c3cccc(Cl)c3)CC1)C(C(=O)c1ccc(Br)cc1)=C2O	FALSE
Cc1ccc(S(=O)(=O)N/N=C2/CCCOC2)cc1	FALSE
CN1C(=O)CN(NC(=O)C2=C(O)c3ccc(Br)cc3S(=O)(=O)N2)C1=S	FALSE
Cc1nc2c(cc1C(=O)NN)c(=O)n(C)c(=O)n2C	FALSE
N#CCCN(CCC#N)c1ccc(/C=C2\N=C(COc3ccc(Cl)cc3Cl)OC2=O)cc1	FALSE
O=c1cc(NNc2cccc(F)c2)[nH]c(=S)[nH]1	FALSE
COc1ccc2c(c1)-c1c(c3cc(OC)ccc3n1CCN1CCOCC1)CC2	FALSE
CC1=NN(c2nc(N)nc(/C(C#N)=C\c3ccc([N+](=O)[O-])s3)n2)C(C)(C)C1	TRUE
O=C(c1ccccc1)c1ccc2[nH]c(-c3c(Cl)c(Cl)c(Cl)c(Cl)c3C(=O)N/N=C/c3ccccc3)nc2c1	FALSE
COC(=O)CC[C@]12C[C@]13CC[C@]1(C)C4C(C)C[C@]5(CC(C)C(=O)O5)OC4CC1(C)C3CCC2C(C)(C)O (stereo partly specified)	FALSE
COc1cc2c(c(OC)c1)C(=O)O[C@H](C)CCCC/C=C/C2	FALSE
CCOC(=O)c1nc2ccc(C(F)(F)F)cc2nc1Oc1ccc(OC)cc1	FALSE
CC(=O)Nc1ccc2nncnc2c1	FALSE
Cn1c(N=[N+]=[N-])cc(=O)n(C)c1=O	FALSE
COCCCNC(=O)C1C(=O)N(CCCOC)C(=O)/C1=N\N (stereo unspecified)	FALSE

###

As shown below, each of these compounds has a reported GI50 value.
Tested on: OVCAR-8
Assay: NCI tumour cell line growth inhibition, 48 h
Activity calls are given as the source filed them. No stated cut-off is given here; in the data, active = GI50 up to about 1.1 µM and inactive = higher. Residues, ends and D or L forms follow the SMILES beside them. *: point of attachment. Ethyl(2-NMe3+) = C[N+](C)(C)CC*; Boc = CC(C)(C)OC(=O)*

COMPOUND	STUDY_SYSTEM	GI50
c1ccc(C(Oc2noc3ccccc23)c2ccccc2)cc1	OVCAR-8	45.3 µM (inactive)
CC(NC(=O)C(Cc1ccc(OCC[N+](C)(C)C)cc1)NC(=O)OC(C)(C)C)C(=O)NC(Cc1ccccc1)C(=O)NCC(N)=O (centres undefined) (Boc-Y(Ethyl(2-NMe3+))AFG-NH2; configuration not given here)	OVCAR-8	12 µM (inactive)
COc1ccc(N2C(=O)C(=O)C3(CCCCC3)C2=O)c(OC)c1OC	OVCAR-8	> 100 µM (inactive)
C=C1C(=O)OC2/C=C(\C(=O)O)CC/C=C(\C)CC(OC(=O)/C=C(\C)CC)C12 (centres undefined)	OVCAR-8	17.2 µM (inactive)

###

System: HL-60
Assay: NCI tumour cell line growth inhibition, 48 h
The source made the active and inactive calls. Rule as the data show it: active = GI50 up to about 1.1 µM and inactive = higher.
Labels: active, inactive

COMPOUND	CLASS_LABEL
N/N=C1/C(=N/O)CCc2nonc21	inactive
COc1ccc(N[S+]([O-])c2c(C)cc(C)cc2C)cc1 (stereo not given)	inactive
O=S(=O)(O)c1ccc2c(/N=N\c3cccc4ccccc34)c(O)c(S(=O)(=O)O)cc2c1	inactive
Cc1oc2ccccc2c(=O)c1Cn1nnc2ccccc21	inactive
CCOP(=O)(COCCn1nc(Br)c(=O)[nH]c1=O)OCC	inactive
Cc1ccc(C)c(NC(=O)C(=O)C(C(=O)c2ccc3ccccc3c2)C2OC(=O)c3ccccc32)c1 (stereo not given)	inactive
COC(=O)[C@H](Cc1ccccc1)NC(=O)c1ccc(CNC(=O)/C=C/c2csc(-c3ccccc3)n2)cc1	active
N#CCCN(CCC#N)c1ccc(/C=C2\N=C(COc3ccc(Cl)cc3Cl)OC2=O)cc1	inactive
CN1C2=Nc3n(C)c4ccccc4[n+]3CN2c2ccccc21	inactive
CO/C(=N\N=C\c1ccc(C(F)(F)F)cc1)c1ccncc1	inactive
